target: wild type PKR (Homo sapiens, UniProt P30613); experiment: PKR (wild type) enzyme AC50 assay, LDH/NADH-coupled, absorbance at 340 nm; type: biochemical; details: Table 2; enzyme assay; read-out: PKR WT AC50
Sequence (P30613 whole entry): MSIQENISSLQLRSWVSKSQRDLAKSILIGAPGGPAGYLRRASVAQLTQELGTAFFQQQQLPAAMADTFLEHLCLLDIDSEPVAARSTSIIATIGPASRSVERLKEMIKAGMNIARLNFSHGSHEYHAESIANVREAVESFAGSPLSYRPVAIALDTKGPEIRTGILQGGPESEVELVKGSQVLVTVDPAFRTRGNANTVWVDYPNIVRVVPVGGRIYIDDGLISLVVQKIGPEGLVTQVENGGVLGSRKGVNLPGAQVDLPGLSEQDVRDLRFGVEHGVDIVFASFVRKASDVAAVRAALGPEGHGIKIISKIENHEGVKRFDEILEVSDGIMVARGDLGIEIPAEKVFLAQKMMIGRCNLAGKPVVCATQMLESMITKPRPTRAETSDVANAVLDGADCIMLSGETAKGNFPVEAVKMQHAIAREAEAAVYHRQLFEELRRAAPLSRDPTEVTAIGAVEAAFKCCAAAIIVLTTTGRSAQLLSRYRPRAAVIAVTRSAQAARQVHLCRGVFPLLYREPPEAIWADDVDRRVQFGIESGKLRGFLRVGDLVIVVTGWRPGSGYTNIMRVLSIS
Each entry below carries its recorded AC50.

{"Molecule": "COc1ccc(Cn2ncc3c4sc(C)nc4n(C)c3c2=O)cc1", "AC50": "< 300 nM"}
{"Molecule": "Cn1c2nc(Cc3ccon3)sc2c2cnn(Cc3cccc4[nH]ncc34)c(=O)c21", "AC50": "301 to 800 nM"}
{"Molecule": "COC(=O)C(c1ccccc1)c1nc2c(s1)c1cnn(Cc3cccc4[nH]ncc34)c(=O)c1n2C (centres unmarked)", "AC50": "> 800 nM"}
{"Molecule": "Cn1c2nc(C(O)c3ccccn3)sc2c2cnn(Cc3cccc4[nH]ncc34)c(=O)c21 (centres unmarked)", "AC50": "> 800 nM"}
{"Molecule": "COc1cccc(Cn2ncc3c4sc(C)nc4n(C)c3c2=O)c1", "AC50": "< 300 nM"}
{"Molecule": "Cn1c2nc(CN)sc2c2cnn(Cc3cccc4[nH]ncc34)c(=O)c21", "AC50": "> 800 nM"}

The molecule listed as Cn1c2nc(S(=O)(=O)Cc3ccccc3)sc2c2cnn(Cc3cccc4[nH]ncc34)c(=O)c21 shows AC50 equal to < 300 nM

The molecule listed as Cn1c2nc([S+](C)[O-])sc2c2cnn(Cc3cccc4[nH]ncc34)c(=O)c21 (centres unmarked) shows AC50 equal to 301 to 800 nM

---

Each entry below carries its recorded AC50.
biological target: PKR R510Q (Homo sapiens, UniProt P30613, R510Q); assay: PKR mutant assay (R510Q), AC50, LDH/NADH-coupled, absorbance at 340 nm; format: biochemical; conditions: Table 2; enzyme assay; read-out: PK R510Q AC50
Sequence (P30613 whole entry R510Q): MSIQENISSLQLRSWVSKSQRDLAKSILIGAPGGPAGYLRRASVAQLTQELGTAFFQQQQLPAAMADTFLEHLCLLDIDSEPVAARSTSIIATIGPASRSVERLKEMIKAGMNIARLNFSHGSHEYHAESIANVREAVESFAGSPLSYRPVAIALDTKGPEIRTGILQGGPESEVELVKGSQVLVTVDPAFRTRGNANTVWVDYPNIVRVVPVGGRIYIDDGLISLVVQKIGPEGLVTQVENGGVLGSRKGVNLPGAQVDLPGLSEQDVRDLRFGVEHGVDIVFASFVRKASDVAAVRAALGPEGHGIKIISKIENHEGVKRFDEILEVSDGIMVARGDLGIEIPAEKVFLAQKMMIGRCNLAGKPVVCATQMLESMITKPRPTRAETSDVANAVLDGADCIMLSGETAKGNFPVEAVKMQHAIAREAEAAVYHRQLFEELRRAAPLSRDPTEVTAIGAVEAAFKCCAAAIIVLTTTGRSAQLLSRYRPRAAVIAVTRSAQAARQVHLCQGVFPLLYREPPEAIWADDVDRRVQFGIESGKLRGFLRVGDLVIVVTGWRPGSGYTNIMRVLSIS

Completed entries (count: 3):
{"Molecule": "CNc1ccc(Cc2nc3c(s2)c2cnn(Cc4cccc5[nH]ncc45)c(=O)c2n3C)cc1", "AC50": "< 300 nM"}
{"Molecule": "CSc1nc2c(s1)c1cnn(Cc3cn4cccnc4n3)c(=O)c1n2C", "AC50": "> 800 nM"}
{"Molecule": "Cn1c2nc([S+](C)[O-])sc2c2cnn(Cc3ccc4c(c3)OCCO4)c(=O)c21 (stereo not shown)", "AC50": "< 300 nM"}

Proceeding to the next molecule to report its AC50.
The molecule listed as Cn1c2nc(C#N)sc2c2cnn(Cc3cccc4[nH]ncc34)c(=O)c21 shows AC50 equal to 301 to 800 nM

---

biological target: wild type PKR (Homo sapiens); experiment: PKR (wild type) enzyme AC50 assay, LDH/NADH-coupled, absorbance at 340 nm; format: biochemical; details: Table 4; AC50, enzyme assay; read-out: PKR WT
pEC50: −log10 of the molar value.
Property Label: pEC50

{"Entry Smiles": "Cn1c2nc(Cc3cc[nH]n3)sc2c2cnn(Cc3cccc4c3CNC4)c(=O)c21", "pEC50": "> 6.52"}
{"Entry Smiles": "CN(c1csc(Cc2cnc(=O)[nH]c2)n1)c1ccnn(Cc2cccc3[nH]ncc23)c1=O", "pEC50": "< 6.10"}
{"Entry Smiles": "Cn1c2nc(Cc3ccns3)sc2c2cnn(Cc3cccc4[nH]ncc34)c(=O)c21", "pEC50": "< 6.10"}
{"Entry Smiles": "Cn1ccc(Cn2ncc3c4sc(Cc5cccc6cn[nH]c56)nc4n(C)c3c2=O)n1", "pEC50": "> 6.52"}
{"Entry Smiles": "CCn1c2nc(Cc3cc[nH]n3)sc2c2cnn(Cc3ccccc3)c(=O)c21", "pEC50": "< 6.10"}
{"Entry Smiles": "Cn1c2nc(Cc3cn[nH]n3)sc2c2cnn(Cc3cccc(OC(F)(F)F)c3F)c(=O)c21", "pEC50": "6.10 to 6.52"}
{"Entry Smiles": "Cn1ccc(Cn2ncc3c4sc(CCc5cccnc5)nc4n(C)c3c2=O)n1", "pEC50": "< 6.10"}
{"Entry Smiles": "Cn1c2nc(Cc3cc[nH]n3)sc2c2cnn(Cc3ccc4[nH]ncc4n3)c(=O)c21", "pEC50": "> 6.52"}
{"Entry Smiles": "COc1ncccc1Cc1nc2c(s1)c1cnn(Cc3cccc4[nH]ncc34)c(=O)c1n2C", "pEC50": "> 6.52"}
{"Entry Smiles": "Cn1c2nc(Cc3cc[nH]n3)sc2c2cnn(Cc3ccc4c(n3)NCC4)c(=O)c21", "pEC50": "> 6.52"}

The compound listed as Cn1c2nc(Cc3cc[nH]n3)sc2c2cnn(Cc3ccc4scnc4c3)c(=O)c21 shows pEC50 equal to > 6.52

The compound listed as Cn1c2nc(Cc3cc[nH]n3)sc2c2cnn(Cc3ccc4c(n3)NC(=O)C4)c(=O)c21 shows pEC50 equal to 6.10 to 6.52
